- systemTested: Bcl-2-related protein A1 (Homo sapiens) (UniProt Q16548)
- Sequence (Q16548 whole entry): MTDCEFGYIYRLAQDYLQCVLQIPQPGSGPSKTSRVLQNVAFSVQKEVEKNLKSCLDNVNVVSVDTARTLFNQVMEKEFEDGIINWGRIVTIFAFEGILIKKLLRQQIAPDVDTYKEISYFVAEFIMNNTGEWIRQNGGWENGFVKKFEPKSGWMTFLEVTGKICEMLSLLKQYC
- testDescription: Covalent binding affinity to human Bcl2A1 assessed as Kinact/Ki ratio by FBid based FP assay
Positions of bridges follow the written chain, without caps; N, C: chain ends. Non-standard residues stand in square brackets, D forms with d. Residues, ends and D or L forms follow the SMILES beside them. ξ: configuration not given here. *: point of attachment. S5 = C=CCCC[C@](C)(N)C(=O)O; Acryloyl = C=CC(=O)*; ξDap = NCC(N)C(=O)O
endpointName: Ratio (mM⁻¹ s⁻¹)

# compound, unitOfMeasurement, measuredResult
records = [
    ("C=CC(=O)NCC1NC(=O)[C@@](C)(NC(C)=O)CCC/C=C/CCC[C@@](C)(C(=O)N[C@@H](CCC(=O)O)C(=O)N[C@@H](CC(C)C)C(=O)N[C@@H](CCCNC(=N)N)C(=O)N[C@@]2(C)CCC/C=C/CCC[C@@](C)(C(=O)N[C@@H](Cc3ccccc3)C(N)=O)NC(=O)[C@H](CC(=O)O)NC(=O)CNC(=O)[C@H]([C@@H](C)CC)NC2=O)NC(=O)[C@H](C)NC(=O)[C@H]([C@@H](C)CC)NC1=O (stereo partly specified) (Ac-[S5][ξDap](Acryloyl)IA[S5]ELR[S5]IGD[S5]F-NH2; staple (E) 1-5, 9-13)", "mM⁻¹ s⁻¹", 16.2),
]
